# System Under Test: HIV-1 YU-2 gp120 (HIV-1 (YU-2), UniProt P35961)
# Test Description: SPR
pIC50: −log10 of the molar value.

>  <Binder>
Fab m18 F99A (HCDR3) (Fab, V domains shown) VH: VQLLESGPGVVKPSETLSLTCTVSGASVNNYYWTWVRQPPGKGLEWIGNVYDSGDTNYNPSLSSRLSLSMDTSKNQFSLRLSSVTAADTATYYCARYHRHAIRGPLSFDYWGRGTLVTVSS VL: LQMTQSPSFLSASVGDRVSITCRASQDIQKFLAWYQLTPGDAPKLLMYSASTLQSGVPSRFSGSGSGTEFTLTISGLQPEDFATYYCQHLKRYPYTFGQGTKLEIS

>  <pIC50>
< 6.30

$$$$
>  <Binder>
Fab m18 S52A (LCDR2) (Fab, V domains shown) VH: VQLLESGPGVVKPSETLSLTCTVSGASVNNYYWTWVRQPPGKGLEWIGNVYDSGDTNYNPSLSSRLSLSMDTSKNQFSLRLSSVTAADTATYYCARYHRHFIRGPLSFDYWGRGTLVTVSS VL: LQMTQSPSFLSASVGDRVSITCRASQDIQKFLAWYQLTPGDAPKLLMYSAATLQSGVPSRFSGSGSGTEFTLTISGLQPEDFATYYCQHLKRYPYTFGQGTKLEIS

>  <pIC50>
≤ 6.30

$$$$
